# Lookup of reported EC50 keyed by entry
# Measurement target: FOLR1 on OVCAR3 cells (UniProt P15328)
# Sequence (P15328 25-234): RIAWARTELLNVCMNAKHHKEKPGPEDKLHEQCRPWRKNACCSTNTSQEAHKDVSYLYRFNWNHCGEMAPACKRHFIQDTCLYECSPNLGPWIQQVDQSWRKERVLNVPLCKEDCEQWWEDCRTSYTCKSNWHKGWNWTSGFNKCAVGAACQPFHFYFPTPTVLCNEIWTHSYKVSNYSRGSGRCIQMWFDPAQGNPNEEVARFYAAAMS
# Run description: cell binding to FOLR1-positive OVCAR3 cells

Binder	Unit of measure	EC50
Farletuzumab (antibody, INN chains, looked up, V domains shown) VH: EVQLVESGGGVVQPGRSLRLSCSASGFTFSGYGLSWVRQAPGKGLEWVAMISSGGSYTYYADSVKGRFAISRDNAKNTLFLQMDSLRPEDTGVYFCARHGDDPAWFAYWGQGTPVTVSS VL: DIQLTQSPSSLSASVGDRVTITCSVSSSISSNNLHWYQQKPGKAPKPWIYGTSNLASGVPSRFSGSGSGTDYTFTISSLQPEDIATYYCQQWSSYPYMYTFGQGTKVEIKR	nM	0.71
Anti-FOLR1x4 GGGGSx3 (monospecific tetravalent VHH-VHH-Fc) (antibody, part only; not given: hinge and wild-type Fc, not shown: a dimerising Fc or GST) chain, part: QVQLVESGGGLVQPGGSLRLSCAASGFTVSNSVMAWYRQTPGNEREFVAIINSIGITNYADSVKGRFTISRDNSKNTLYLQMNSLRAEDTAVYVCNRNFDRIYWGQGTLVTVSSGGGGSGGGGSGGGGSQVQLVESGGGLVQPGGSLRLSCAASGFTVSNSVMAWYRQTPGNEREFVAIINSIGITNYADSVKGRFTISRDNSKNTLYLQMNSLRAEDTAVYVCNRNFDRIYWGQGTLVTVSS	nM	0.28
Anti-FOLR1x4 GGSx4 (monospecific tetravalent VHH-VHH-Fc) (antibody, part only; not given: hinge and wild-type Fc, not shown: a dimerising Fc or GST) chain, part: QVQLVESGGGLVQPGGSLRLSCAASGFTVSNSVMAWYRQTPGNEREFVAIINSIGITNYADSVKGRFTISRDNSKNTLYLQMNSLRAEDTAVYVCNRNFDRIYWGQGTLVTVSSGGSGGSGGSGGSQVQLVESGGGLVQPGGSLRLSCAASGFTVSNSVMAWYRQTPGNEREFVAIINSIGITNYADSVKGRFTISRDNSKNTLYLQMNSLRAEDTAVYVCNRNFDRIYWGQGTLVTVSS	nM	0.81
Anti-FOLR1x4 GGSx3 (monospecific tetravalent VHH-VHH-Fc) (antibody, part only; not given: hinge and wild-type Fc, not shown: a dimerising Fc or GST) chain, part: QVQLVESGGGLVQPGGSLRLSCAASGFTVSNSVMAWYRQTPGNEREFVAIINSIGITNYADSVKGRFTISRDNSKNTLYLQMNSLRAEDTAVYVCNRNFDRIYWGQGTLVTVSSGGSGGSGGSQVQLVESGGGLVQPGGSLRLSCAASGFTVSNSVMAWYRQTPGNEREFVAIINSIGITNYADSVKGRFTISRDNSKNTLYLQMNSLRAEDTAVYVCNRNFDRIYWGQGTLVTVSS	nM	0.49
